// data source = patent US7282494B2

Where a name gives a salt, the structure may show the parent alone.
Endpoint Label: melting point

Below are worked cases with known answers.
Compound: CCC(CC)COc1cncc(N2CCCNCC2)c1 (as salt: fumaric acid salt)
melting point: 113.7 to 115.9 °C

Compound: Clc1cncc(N2CCCNCCC2)c1 (as salt: fumaric acid salt)
melting point: 186 to 187 °C

Compound: C=COc1cc(N2CCCNCC2)cnc1Cl (as salt: fumaric acid salt)
melting point: 183 to 185 °C

Compound: c1ncc(N2CCCNCC2)cc1N1CCC1 (as salt: fumaric acid salt)
melting point: 143.5 to 146.9 °C

Next, consider the following compound.
Param item = Clc1cc(N2CCCNCC2)cnc1Cl (as salt: fumaric acid salt) ; retrieve measured melting point.
172.2 to 173.4 °C

---

- Tested On: neuronal nicotinic receptors (3H-epibatidine binding sites; high affinity site α4β2 subtype) (Rattus norvegicus, UniProt P09483+P12390)
- Sequence (P09483 31-630): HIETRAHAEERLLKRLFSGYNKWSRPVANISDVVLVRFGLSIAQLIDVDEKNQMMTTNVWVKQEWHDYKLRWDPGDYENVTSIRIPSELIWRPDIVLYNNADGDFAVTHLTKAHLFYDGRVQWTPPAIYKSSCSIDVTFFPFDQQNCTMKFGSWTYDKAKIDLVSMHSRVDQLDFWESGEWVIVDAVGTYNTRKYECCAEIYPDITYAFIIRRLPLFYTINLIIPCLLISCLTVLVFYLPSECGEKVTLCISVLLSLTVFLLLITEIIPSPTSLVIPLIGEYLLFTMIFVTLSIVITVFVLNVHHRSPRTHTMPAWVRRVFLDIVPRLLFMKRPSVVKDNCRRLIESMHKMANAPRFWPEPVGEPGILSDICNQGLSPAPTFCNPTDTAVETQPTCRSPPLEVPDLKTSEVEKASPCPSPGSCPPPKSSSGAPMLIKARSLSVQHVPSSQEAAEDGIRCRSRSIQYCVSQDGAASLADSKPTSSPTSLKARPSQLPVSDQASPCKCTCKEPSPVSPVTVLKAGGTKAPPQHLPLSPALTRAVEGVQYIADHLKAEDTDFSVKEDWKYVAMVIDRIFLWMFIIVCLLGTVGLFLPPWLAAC
- Sequence (P12390 25-500): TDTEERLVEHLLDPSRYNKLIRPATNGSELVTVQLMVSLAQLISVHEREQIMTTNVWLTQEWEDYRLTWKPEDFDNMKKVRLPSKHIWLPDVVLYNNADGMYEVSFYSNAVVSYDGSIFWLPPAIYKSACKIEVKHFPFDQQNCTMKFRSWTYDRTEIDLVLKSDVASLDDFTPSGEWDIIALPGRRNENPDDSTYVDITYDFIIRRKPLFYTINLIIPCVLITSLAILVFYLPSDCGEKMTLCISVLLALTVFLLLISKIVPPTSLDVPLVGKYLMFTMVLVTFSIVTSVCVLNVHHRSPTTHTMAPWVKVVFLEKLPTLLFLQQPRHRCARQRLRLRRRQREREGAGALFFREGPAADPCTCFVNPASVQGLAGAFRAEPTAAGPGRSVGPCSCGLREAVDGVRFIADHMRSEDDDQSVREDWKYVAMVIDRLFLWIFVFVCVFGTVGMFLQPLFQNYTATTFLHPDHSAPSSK
Endpoint Label: pIC50
Give bare numbers, as −log10 of the molar value.

Give its pIC50 value. Item: "CC(C)=COc1cncc(N2CCCNCC2)c1"
7.70

---

- Tested On: nAChR formed by the α7 subunit isoform (Rattus norvegicus)
- Experimental Details: In vitro inhibition of 3H-α-bungarotoxine binding rat brain (Assay III)
- Measurement Setup: 3H-α-bungarotoxine 2 nM; cerebral cortices from male Wistar rats; 2 h at 37° C.; read-out: Assay III IC50
Endpoint Label: pIC50
Numbers only, as −log10 of the molar value.

Use these answered entries as a reference point.
Compound: CC1OC1Oc1cncc(N2CCCNCC2)c1 (stereo not shown)
pIC50: 4.24
//
Compound: C(#Cc1cncc(N2CCCNCC2)c1)c1ccccc1
pIC50: 4.96
//
Compound: CCCC=CCOc1cncc(N2CCCNCC2)c1
pIC50: 4.33
//
Compound: Brc1ccc(N2CCCNCC2)nn1 [1-(6-Bromo-3-pyridazinyl)-homopiperazine]
pIC50: 5.82
//
Compound: C=CC(C)Oc1cncc(N2CCCNCC2)c1 (stereo not shown)
pIC50: 4.96

Parameter requested: pIC50. Apply to each item below.
1. CC(C)=COc1cncc(N2CCCNCC2)c1
2. Brc1cc(N2CCCNCC2)cnc1Br [1-(5,6-Dibromo-3-pyridyl)-homopiperazine]
3. c1ncc(N2CCCNCC2)cc1N1CCCC1

1: 4.07; 2: 5.52; 3: 5.30

---

Could you please report measured pIC50 for the items listed next?
- Tested On: neuronal nicotinic receptors (3H-epibatidine binding sites; high affinity site α4β2 subtype) (Rattus norvegicus, UniProt P09483+P12390)
- Experimental Details: biochemical
Answers are plain numbers, as −log10 of the molar value.

Recorded results for 2 compounds are shown here.
Compound: CCC(CC)COc1cncc(N2CCCNCC2)c1
Observed Measurement: 7.89

Compound: Brc1cc(N2CCCNCC2)cnc1Br
Observed Measurement: 9.00

Consider the following items and state reported pIC50 for each.
1. Clc1cc(N2CCCNCC2)cnc1Br
2. CCCCOc1cncc(N2CCCNCCC2)c1
3. C(#Cc1cncc(N2CCCNCC2)c1)c1ccccc1
4. c1ncc(N2CCCNCC2)cc1N1CCCC1
5. Clc1cc(N2CCCNCC2)cnc1Cl
6. CC1OC1Oc1cncc(N2CCCNCC2)c1 (stereo not shown)
7. c1ncc(N2CCCNCC2)cc1OCC1CCC1
8. Brc1ccc(N2CCCNCC2)nn1

8.70
8.52
8.30
7.40
8.70
7.40
8.40
7.15

Please state, for each entry, its recorded pIC50.
1. C=CC(C)Oc1cncc(N2CCCNCC2)c1 (stereo not shown)
2. Clc1ncc(N2CCCNCC2)cc1Br
3. CCCC=CCOc1cncc(N2CCCNCC2)c1

[7.28, 9.00, 8.10]

---

- Tested On: nAChR formed by the α7 subunit isoform (Rattus norvegicus, UniProt Q05941)
- Sequence (Q05941 23-502): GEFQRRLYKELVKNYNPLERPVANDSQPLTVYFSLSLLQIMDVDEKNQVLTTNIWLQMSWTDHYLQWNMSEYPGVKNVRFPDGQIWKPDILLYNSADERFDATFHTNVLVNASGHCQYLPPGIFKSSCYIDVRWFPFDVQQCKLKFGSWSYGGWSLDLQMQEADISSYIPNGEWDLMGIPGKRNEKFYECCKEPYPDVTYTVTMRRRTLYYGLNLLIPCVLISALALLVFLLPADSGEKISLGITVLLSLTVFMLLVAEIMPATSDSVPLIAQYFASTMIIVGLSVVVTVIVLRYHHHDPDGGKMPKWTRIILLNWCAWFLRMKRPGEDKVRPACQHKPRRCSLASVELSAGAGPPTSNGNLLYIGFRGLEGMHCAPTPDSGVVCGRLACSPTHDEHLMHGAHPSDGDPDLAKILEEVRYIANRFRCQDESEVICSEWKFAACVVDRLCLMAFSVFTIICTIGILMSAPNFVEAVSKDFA
- Experimental Details: In vitro inhibition of 3H-α-bungarotoxine binding rat brain (Assay III)
- Measurement Setup: 3H-α-bungarotoxine 2 nM; cerebral cortices from male Wistar rats; 2 h at 37° C.; read-out: Assay III IC50
pIC50: −log10 of the molar value.
Assignment: determine reported pIC50 for the given compounds.

Answer for every listed entry: what is its pIC50? The entries follow.
1. CCC(CC)COc1cncc(N2CCCNCC2)c1
2. Clc1ncc(N2CCCNCC2)cc1Br
3. Clc1cc(N2CCCNCC2)cnc1Br
4. c1ncc(N2CCCNCC2)cc1OCC1CCC1

1: < 4.52; 2: > 5.52; 3: > 5.52; 4: < 4.52

What value of pIC50 has been reported for the following compound? "Clc1cc(N2CCCNCC2)cnc1Cl"
> 5.52
